Tested on: Avena fatua (AVEFA)
Assay: Glasshouse assay for herbicidal activity (pre- and post-emergence), percentage phytotoxicity
Type: in vivo
Conditions: Avena fatua, pre-emergence, 480 h, Rate 250 g/ha; pre-emergence; assessed visually 20 DAA; 100%=total damage, 0%=no damage; read-out: Pre-emergence herbicidal activity (percentage phytotoxicity) AVEFA PRE
Experimental: Test—Glasshouse Assay for Herbicidal Activity Seeds of a variety of monocotyledonous and dicotyledonous test plants are sown in standard soil in pots. The plants are cultivated for one day (for pre-emergence (PRE)) or for about 12 days (for post-emergence (POST)) under controlled conditions in a glasshouse (warm climate species at 24/18° C., cool climate species at 20/16° C., both at day/night; 16 hours light; 65% humidity). […]
# fulfilled = pest or weed control at 250 g/ha below 80% (exclusive); not fulfilled = pest or weed control at 250 g/ha at/above 80%

Reference set (5 entries):
- compound: "CC#Cc1cc(C)c(C2C(=O)CC(CC(=O)NC3CC3)C2=O)c(CC)c1 (centres unmarked) [Compound A66]"
  group label: "not fulfilled"
- compound: "Cc1cc(-c2ccc(F)cc2)cc(C)c1C1C(=O)CC(CC(=O)NC(C)(C)C)C1=O (centres unmarked) [Compound A36]"
  group label: "not fulfilled"
- compound: "Cc1cc(-c2ncc(Cl)cc2F)cc(C)c1C1C(=O)CC(CC(=O)NCc2ncc(C(F)(F)F)cc2Cl)C1=O (centres unmarked) [Compound A113]"
  group label: "not fulfilled"
- compound: "Cc1cc(C)c(C2C(=O)CC(CC(=O)NCc3ccc(OC(F)(F)F)cc3)C2=O)c(C)c1 (centres unmarked) [Compound A92]"
  group label: "fulfilled"
- compound: "Cc1ccc(-c2cc(C)c(C3C(=O)CC(CC(=O)NCc4cccc(C(F)(F)F)c4)C3=O)c(C)c2)nc1 (centres unmarked) [Compound A158]"
  group label: "fulfilled"

# TODO verify pest or weed control at 250 g/ha < 80% strictly for this compound: Cc1cc(-c2ccc(Cl)cc2)cc(C)c1C1C(=O)CC(CC(=O)NC(C)C)C1=O (centres unmarked) [Compound A35]
not fulfilled

# TODO verify pest or weed control at 250 g/ha < 80% strictly for this compound: Cc1cc(C)c(C2C(=O)CC(CC(=O)NCc3ccccc3C#N)C2=O)c(C)c1 (centres unmarked) [Compound A108]
fulfilled
